- targetSystem: Neu5Ac(a2-3)Gal(b1-4)GlcNAc(b1-2)Man(a1-3)[Neu5Ac(a2-6)Gal(b1-4)GlcNAc(b1-2)Man(a1-6)]Man(b1-4)GlcNAc(b1-4)GlcNAc
- assayDetails: glycan array binding signal (z-score within array); higher = stronger binding
- details: glycan notation: IUPAC condensed, linker removed
The entries come from a sample that favours the strongest signals as a whole.
propertyName: glycan array binding signal (z-score)

>>> experimentalvalue("Epa1to9 (Candida glabrata) (protein) MGSSHHHHHHSSGLVPRGSHMTSSNDISLASKDPTTFPLGCSPDITTPKKGLSMELYSYDFRKKGSYPCWDAAYLDPNYPRTGYKSHRLLAKVDGVTGNINFYYHATKGCTPQLGHLPASYNYPKPLTMTNFTMLLYGYFRPKVTGFHTFTISADDLLFVNFGAGNAFDCCRRDSSADHFGNYQAYAIWGSKTAKDELTVHLDAGVYYPIRLFYNNRDYHGALSFTFKTESNENTVSDFSEYFFSLDDTEEGCPGLISYD")
-0.322
>>> experimentalvalue("Epa11 (Candida glabrata) (protein) MGSSHHHHHHSSGLVPRGSHMASSNAPNYPVGCSPSVGTQLTPGLSLEVYAYPMDGNNGYCWNATYKDPEFPRSGYLKNKLLGKADGVVGPLNFLAKNKDCSPKVDTLPAGFNFPQPITVTNFTMVLFGYLAPKQSGKYTFKLLADDLLLLNLGATNAFDCCNREATKNNLGEFLAYNLWPNQDKNVTVYLEKGVYYPLRLFFNNRDGGSQLDFSYYFNDSPAPLTDFSGMFFSVPDGAECPARI")
-0.573
>>> experimentalvalue("BIp1-His (Cryptococcus neoformans) (protein) MFTKIFVALFAATAVLSAPVESAEKRITHTGRATFYSPSVGIGACGWQNTDEELVVALNAPQYALNADHNCGQSVRITNEQNGNQEIAKVVDLCPGCNDGDLDMSPALFGALNNNDFDQGVFPISWNFLPRDDTSSSN")
-0.064
>>> experimentalvalue("Pwp4 (Candida glabrata) (protein) MGSSHHHHHHSSGLVPRGSHMASVGNPITVSNVCSFPKNWHRTAGFRALTARLGIGIQSDSYKELLNYPGTFQLTTQQSSTTKPNFQISGLVGNIYGLTIVPSYLLVELTGYFVPPVSGEYTFSLEGSDDAAIIFIANPSTFKCGHVEDWPTAYDNDVTVTESIHATRTIYMIEGVAYPIRIAYYNGLSLGKLQASFTDPEGVKRVDWNGYIWRYDSCDTCSYV")
0.37
